This collection of values is drawn from PubChem BioAssay AID1159580.

# protocol_summary: chemical genetic growth profiling, strain panel (AID 1159580);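 further: tested at 20 µM; growth read once vehicle control cultures reached saturation at 30 °C; lower values mean less growth of the strain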
# experimental_parameters: S. cerevisiae deletion strains, growth OD, locus YOR119C, strain RIO1
Hit rate of the full screen: of about 5,500 compounds, about 2,000 (36%) were called active. Not shown: some 18% with an inconclusive outcome. No stated cut-off is given here; in the data, active means normalized growth mostly below about 0.91 (no sharp cut-off); inconclusive means no clear call, values can overlap the other calls; inactive means mostly above about 0.92. The list shows a part of the results.
Outcome field: choose from active, inactive

{"columns": ["chem_smiles", "answer_label"],
 "data": [
  ["N#CCC(=O)NNC(=S)Nc1ccc(Cl)c(Cl)c1", "inactive"],
  ["CSc1ccc(/C=C/[N+](=O)[O-])cc1", "active"]
]}

Q: What call does the record list for O=C(NCCSCc1cccc(C(F)(F)F)c1)Nc1cccc(C(F)(F)F)c1 ?
Ans: inactive

Q: Then what about the compound N#CC(C#N)=C/C=C(/Sc1ccc(F)c(Cl)c1)c1ccc(Cl)cc1 ?
Ans: inactive

Q: Param item: O=S(=O)(N/N=C\c1ccc(Cl)cc1)c1ccc(-c2ccccn2)s1
Ans: inactive

Q: Please answer likewise for CSc1ccc(/C=C(\C)[N+](=O)[O-])cc1
Ans: active

Q: Quick one: Cc1nn(Cc2ccc(C(=O)Sc3ccc(C(F)(F)F)cn3)o2)c(C)c1Br
Ans: inactive

Q: Likewise for O=[N+]([O-])/C=C/c1ccc(F)cc1 ?
Ans: active

Q: And CCOc1ccc(/C=C(\C)[N+](=O)[O-])cc1OC ?
Ans: active

Q: Another compound to look at: C/C(=C\c1ccc2c(c1)OCO2)[N+](=O)[O-]
Ans: active

Q: // query: CCOC(=O)/C(=N/Nc1c(Cl)cccc1Cl)c1csc(N)n1
Ans: inactive

Q: Further, for CCCc1c(C(=O)Sc2ccccn2)cnn1-c1ccc(Cl)cc1 ?
Ans: inactive

* * *

# protocol_summary: chemical genetic growth profiling, strain panel (AID 1159580);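 further: tested at 20 µM; growth read once vehicle control cultures reached saturation at 30 °C; lower values mean less growth of the strain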
# experimental_parameters: S. cerevisiae deletion strains, growth OD, locus YBR231C, strain swc5
Out of some 5,500 compounds screened, about 2,000 (36%) were called active. Roughly 18% stayed inconclusive and do not appear here. No stated cut-off is given here; in the data, active means normalized growth mostly below about 0.91 (no sharp cut-off); inconclusive means no clear call, values can overlap the other calls; inactive means mostly above about 0.92. The list shows a part of the results.
# valid calls are t (active), f (inactive); nothing else

Past entries and their recorded results:
{"columns": ["compound", "answer_label"],
 "data": [
  ["CNC[C@@H](O)c1ccc(O)c(O)c1", "f"],
  ["O=C(O)C1=CCNCC1", "f"],
  ["CCOP(=S)(OCC)SCn1c(=O)oc2cc(Cl)ccc21", "f"],
  ["CC(=O)O[C@@H]1C[C@@]2(C)[C@H](c3ccoc3)C[C@H]3O[C@]32[C@]2(C)C(=O)C(O)=C3C(C)(C)C(=O)C=C[C@]3(C)C12 (stereo partly specified)", "f"]
]}

Q: Name the outcome recorded for O=C(O)CF in the assay.
Ans: f

Q: Another compound to check: CC1(C)C(=O)C=C[C@@]2(C)C1=C(O)C(=O)[C@]1(C)C2CC[C@@]2(C)[C@H](c3ccoc3)C[C@H]3O[C@]321 (stereo partly specified)
Ans: t

Q: Input COc1ccccc1OCCNCC(O)COc1cccc2[nH]c3ccccc3c12 (stereo unspecified)
Ans: f

Q: For CC(C)NCC(O)c1ccc(O)c(O)c1 (stereo unspecified) then?
Ans: f

Q: Next compound: CCCCC1=NC2(CCCC2)C(=O)N1Cc1ccc(-c2ccccc2-c2nn[nH]n2)cc1
Ans: f

Q: Now give it for C=C(C)C1CC=C(CO)CC1 (stereo unspecified) too.
Ans: f

Q: Lookup Oc1c(I)cc(I)c2cccnc12
Ans: t
